# TESTED ON: murine GPC3-his protein (Sino Biological, Cat. No. 50989-M08B) (murine) (UniProt Q8CFZ4)
# Sequence (Q8CFZ4 25-558 limits assumed): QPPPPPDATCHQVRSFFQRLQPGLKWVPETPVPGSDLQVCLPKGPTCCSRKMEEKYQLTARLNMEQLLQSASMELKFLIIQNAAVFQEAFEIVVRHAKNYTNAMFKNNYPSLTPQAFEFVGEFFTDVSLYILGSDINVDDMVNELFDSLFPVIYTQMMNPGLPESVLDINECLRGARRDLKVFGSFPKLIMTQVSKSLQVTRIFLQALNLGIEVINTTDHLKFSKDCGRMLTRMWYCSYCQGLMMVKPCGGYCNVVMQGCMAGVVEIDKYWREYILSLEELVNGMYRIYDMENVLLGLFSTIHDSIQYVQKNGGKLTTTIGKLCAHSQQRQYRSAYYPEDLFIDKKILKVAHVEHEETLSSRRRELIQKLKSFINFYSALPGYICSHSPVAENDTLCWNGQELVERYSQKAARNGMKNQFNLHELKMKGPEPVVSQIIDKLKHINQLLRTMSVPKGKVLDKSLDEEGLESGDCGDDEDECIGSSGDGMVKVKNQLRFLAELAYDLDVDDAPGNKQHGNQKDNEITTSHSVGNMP
# ASSAY TEXT: ELISA, coated murine GPC3-His
Quick reference for OD450 at 0.01 nM antibody among some binders
The reply should contain only the number, in OD450 nm.

For orientation, consider the following solved cases.
INSERT INTO assay_data (binder, reported_value) VALUES
  ('F1.57.21 human-murine chimeric antibody (antibody, human IgG1, kappa, V domains shown) VH: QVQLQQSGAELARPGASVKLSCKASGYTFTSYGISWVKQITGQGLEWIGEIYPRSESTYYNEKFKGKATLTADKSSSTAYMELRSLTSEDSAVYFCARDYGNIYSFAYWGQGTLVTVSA VL: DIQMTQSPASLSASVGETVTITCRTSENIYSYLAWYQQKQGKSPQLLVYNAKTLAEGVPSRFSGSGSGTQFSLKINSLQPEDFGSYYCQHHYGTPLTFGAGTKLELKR', 0.07),
  ('F1.120.16 human-murine chimeric antibody (antibody, human IgG1, kappa, V domains shown) VH: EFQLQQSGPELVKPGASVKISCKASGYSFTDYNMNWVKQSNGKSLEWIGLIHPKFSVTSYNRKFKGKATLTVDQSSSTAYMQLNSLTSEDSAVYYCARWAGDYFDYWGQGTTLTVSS VL: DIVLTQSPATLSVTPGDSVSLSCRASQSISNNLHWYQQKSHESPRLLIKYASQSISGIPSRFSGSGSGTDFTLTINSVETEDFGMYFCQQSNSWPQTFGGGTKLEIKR', 0.16),
  ('F1.73.9 human-murine chimeric antibody (antibody, human IgG1, kappa, V domains shown) VH: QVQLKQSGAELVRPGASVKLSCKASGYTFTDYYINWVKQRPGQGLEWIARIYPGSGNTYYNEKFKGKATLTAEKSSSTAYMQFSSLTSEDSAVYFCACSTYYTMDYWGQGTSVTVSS VL: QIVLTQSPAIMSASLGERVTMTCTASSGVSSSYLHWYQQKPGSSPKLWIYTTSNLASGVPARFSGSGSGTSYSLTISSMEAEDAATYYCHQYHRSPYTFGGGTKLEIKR', 0.06);

// next item, OD450 at 0.01 nM antibody requested
*Q* What measured OD450 at 0.01 nM antibody goes with F1.115.8 human-murine chimeric antibody (antibody, human IgG1, kappa, V domains shown) VH: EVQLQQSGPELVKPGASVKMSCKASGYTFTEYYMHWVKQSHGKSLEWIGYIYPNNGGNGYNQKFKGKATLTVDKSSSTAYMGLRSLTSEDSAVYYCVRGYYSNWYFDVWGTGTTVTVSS VL: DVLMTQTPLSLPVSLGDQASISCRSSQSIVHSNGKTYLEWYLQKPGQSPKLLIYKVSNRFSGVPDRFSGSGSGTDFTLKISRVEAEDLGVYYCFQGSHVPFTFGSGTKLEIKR ?
*A* 0.07
